Overview of reported inhibition across a group of compounds:
# target.system: Tyrosine-protein kinase Lck (Homo sapiens) (UniProt P06239);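 further: reported Lck percent inhibition is a mean value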
# Sequence (P06239 2-509 limits assumed): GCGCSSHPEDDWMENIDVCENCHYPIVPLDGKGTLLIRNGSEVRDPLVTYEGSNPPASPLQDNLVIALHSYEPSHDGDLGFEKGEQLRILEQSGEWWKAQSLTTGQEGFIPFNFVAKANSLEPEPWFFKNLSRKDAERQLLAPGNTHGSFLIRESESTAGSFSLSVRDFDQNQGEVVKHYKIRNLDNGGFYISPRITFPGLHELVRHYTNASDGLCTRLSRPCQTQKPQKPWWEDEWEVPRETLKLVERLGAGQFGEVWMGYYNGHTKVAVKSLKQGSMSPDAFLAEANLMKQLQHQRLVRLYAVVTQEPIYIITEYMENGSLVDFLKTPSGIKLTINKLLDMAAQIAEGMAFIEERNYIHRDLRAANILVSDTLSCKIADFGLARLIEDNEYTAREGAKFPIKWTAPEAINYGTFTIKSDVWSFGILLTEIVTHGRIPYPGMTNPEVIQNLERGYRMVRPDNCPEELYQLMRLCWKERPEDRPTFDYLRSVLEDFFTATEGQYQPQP
# condition.set: at 1 µM
recorded.metric: inhibition

compound=CCc1nccc2c1nc(-c1nonc1N)n2CC endpoint_value=6.3%
compound=NC(=O)c1ccc(Oc2nccc(-c3c(-c4ccc(F)cc4)ncn3C3CCNCC3)n2)cc1 endpoint_value=4.88%
compound=COc1cccc(/C=N/Nc2ncnc3c2cnn3-c2cccc(OC)c2)c1 endpoint_value=8.97%
compound=NS(=O)(=O)c1ccc(Nc2cc(-c3ccc(O)c(F)c3)n[nH]2)cc1 endpoint_value=7.91%
compound=COc1cc(Nc2ncc3c(C)nc(-c4cccc(Oc5ccccc5)c4)n3n2)cc(OC)c1OC endpoint_value=5.01%
compound=COc1cc(C)c(N(C)C(=O)CN(C)C)cc1Nc1nc(Nc2cccc(F)c2C(N)=O)c2cc[nH]c2n1 endpoint_value=-1.56%
compound=FC(F)(F)c1cccc(Nc2nccc(-c3cnn4nc(-c5ccccc5)ccc34)n2)c1 endpoint_value=2.24%
compound=O=C(Nc1n[nH]c2nc(-c3ccco3)ccc12)C1CC1 endpoint_value=3.59%
compound=C[C@@H](Oc1cc(-n2cnc3ccc(OC4CCN(C)CC4)cc32)sc1C(N)=O)c1ccccc1Cl endpoint_value=4.21%
compound=C#Cc1cccc(Nc2ncnc3ccc(OCCCCNCCS(C)(=O)=O)cc23)c1 endpoint_value=13.5%
compound=O=C1NC(=O)C(c2cccc(Cl)c2)=C1Nc1ccc(Cl)c(C(=O)O)c1 endpoint_value=0.84%
compound=Cc1ccc(C(=O)NC2CCC2)cc1-c1ccc(C(=O)NCC2CC2)cc1 endpoint_value=2.51%
compound=COc1cc(N2CCN(C(C)C)CC2)ccc1Nc1nc(Nc2ccc(F)cc2C(=O)NC[C@@H](O)CO)c2cc[nH]c2n1 endpoint_value=-2.81%
compound=CN(C)CCOc1ccc(-c2cc(-c3ccc4c(c3)CCC4=NO)c(-c3ccncc3)o2)cc1 endpoint_value=24.9%
compound=CS(=O)(=O)CCNCc1cc(-c2cc3c(Nc4ccc(OCc5cccc(F)c5)c(Cl)c4)ncnc3s2)cs1 endpoint_value=4.18%
compound=C[C@@H](Oc1cc(-n2cnc3ccc(OCC4CCN(C)CC4)cc32)sc1C(N)=O)c1ccccc1Cl endpoint_value=29.8%
compound=Clc1ccc(CNc2nccc(-c3cnn4ncccc34)n2)cc1 endpoint_value=2.46%
compound=CS(=O)(=O)CCNCc1ccc(-c2ccc3ncnc(Nc4ccc(OCc5ccccc5)c(Br)c4)c3c2)o1 endpoint_value=4.79%
compound=CN(c1ccc(NC(=O)Nc2c(Cl)cccc2Cl)cc1)c1ccnc(Nc2cccc(CS(C)(=O)=O)c2)n1 endpoint_value=61.2%
compound=CN(C)c1ccc2c(c1)/C(=C/Nc1ccc(S(N)(=O)=O)cc1)C(=O)N2 endpoint_value=12.7%
compound=CCc1ccc(Oc2nccc(-c3c(-c4ccc(F)cc4)ncn3C3CCNCC3)n2)cc1 endpoint_value=6.55%
compound=O=C(Nc1n[nH]c2cc(-c3ccccc3)ccc12)C1CC1 endpoint_value=6.66%
compound=COc1cc(Nc2ncc(-c3ccccc3)o2)cc(OC)c1OC endpoint_value=25%
compound=O=C(Nc1n[nH]c2nc(-c3ccc(O)cc3)c(Br)cc12)C1CC1 endpoint_value=22.2%
compound=NCc1ccc(-n2c(-c3nonc3N)nc3cnccc32)cc1 endpoint_value=4.5%
compound=COC(=O)Nc1nc2ccc(Sc3ccc(NC(=O)Nc4cc(C(F)(F)F)ccc4F)cc3)cc2[nH]1 endpoint_value=34.7%
compound=c1ccc(Oc2ccc(Nc3ncc(-c4ccccc4)o3)cc2)cc1 endpoint_value=2.2%
compound=CN1CCN(CCCNc2nc3ccc(Oc4ccc(NC(=O)Nc5cc(C(F)(F)F)ccc5F)cc4)cc3[nH]2)CC1 endpoint_value=7.95%
compound=NC(=O)Cc1ccccc1Oc1nccc(-c2c(-c3ccc(F)cc3)ncn2C2CCNCC2)n1 endpoint_value=1.06%
compound=CCc1cccc(CC)c1/C=C/c1cncc(C(=O)NC)c1 endpoint_value=4.94%
compound=Cc1nnc(-c2ccc(C)c(-c3ccc(C(=O)NCc4ccc(Cl)cc4)cc3)c2)o1 endpoint_value=-1.25%
compound=COc1ccc(C2=C(N3CCc4ccccc43)C(=O)NC2=O)cc1 endpoint_value=4.16%
compound="Nc1nccc(-c2c(-c3ccc(F)cc3)ncn2C2CCC(O)CC2)n1 (stereo unspecified)" endpoint_value=29.2%
compound=Fc1ccc(-c2ncn(C3CCNCC3)c2-c2ccnc(Oc3ccc(Oc4ccccc4)cc3)n2)cc1 endpoint_value=4.76%
compound=CN(C)CCCNc1nccc(-c2c(-c3ccc(F)cc3)nn3cc(C(F)(F)F)ccc23)n1 endpoint_value=3.17%
compound=Fc1ccc(-c2ncn(CCCN3CCOCC3)c2-c2ccncc2)cc1 endpoint_value=3.45%
compound=CNC(=O)c1cncc(/C=C/c2c(C)cccc2C)c1 endpoint_value=30%
compound="COc1ccc2cc(-c3c(-c4ccncc4)nc(-c4ccc([S+](C)[O-])cc4C)n3C)ccc2c1 (stereo unspecified)" endpoint_value=8.73%
compound=NC(=O)c1cc(-c2ccc(F)cc2)cc(-c2ccncc2)c1N endpoint_value=7.42%
compound=COc1cc2ncn(-c3cc(OCc4cccs4)c(C(N)=O)s3)c2cc1OC endpoint_value=13.8%
compound=CCS(=O)(=O)c1ccc(OC)c(Nc2ncc(-c3ccccc3Cl)o2)c1 endpoint_value=10.2%

These entries and their values trace back to ChEMBL document CHEMBL1961873.
